Data origin, for the record: paper PMC4085138

# experimental_target: granuphilin C2A domain (Homo sapiens, UniProt Q96C24)
# Sequence (Q96C24 352-488): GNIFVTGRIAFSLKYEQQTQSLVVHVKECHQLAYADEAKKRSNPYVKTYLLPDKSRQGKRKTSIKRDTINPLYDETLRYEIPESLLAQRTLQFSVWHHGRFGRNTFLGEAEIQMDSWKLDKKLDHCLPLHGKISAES
# procedure_details: FRET competition binding assay: IP6 titrated into vesicle-bound C2A
# test_conditions: PC/PG/dPE vesicles, 125 μM accessible lipid, 1 μM C2A
measure_name: pIC50
Answers are plain numbers, as −log10 of the molar value.

Which pIC50 reading was recorded for the compound O=P(O)(O)O[C@H]1[C@H](OP(=O)(O)O)[C@@H](OP(=O)(O)O)[C@H](OP(=O)(O)O)[C@@H](OP(=O)(O)O)[C@H]1OP(=O)(O)O ?
4.96
